Provenance of the data: paper PMC5063400

study_system: porcine GR Val610 (mutant) (Sus scrofa, UniProt Q9N1U3)
Sequence (Q9N1U3 whole entry, change not shown): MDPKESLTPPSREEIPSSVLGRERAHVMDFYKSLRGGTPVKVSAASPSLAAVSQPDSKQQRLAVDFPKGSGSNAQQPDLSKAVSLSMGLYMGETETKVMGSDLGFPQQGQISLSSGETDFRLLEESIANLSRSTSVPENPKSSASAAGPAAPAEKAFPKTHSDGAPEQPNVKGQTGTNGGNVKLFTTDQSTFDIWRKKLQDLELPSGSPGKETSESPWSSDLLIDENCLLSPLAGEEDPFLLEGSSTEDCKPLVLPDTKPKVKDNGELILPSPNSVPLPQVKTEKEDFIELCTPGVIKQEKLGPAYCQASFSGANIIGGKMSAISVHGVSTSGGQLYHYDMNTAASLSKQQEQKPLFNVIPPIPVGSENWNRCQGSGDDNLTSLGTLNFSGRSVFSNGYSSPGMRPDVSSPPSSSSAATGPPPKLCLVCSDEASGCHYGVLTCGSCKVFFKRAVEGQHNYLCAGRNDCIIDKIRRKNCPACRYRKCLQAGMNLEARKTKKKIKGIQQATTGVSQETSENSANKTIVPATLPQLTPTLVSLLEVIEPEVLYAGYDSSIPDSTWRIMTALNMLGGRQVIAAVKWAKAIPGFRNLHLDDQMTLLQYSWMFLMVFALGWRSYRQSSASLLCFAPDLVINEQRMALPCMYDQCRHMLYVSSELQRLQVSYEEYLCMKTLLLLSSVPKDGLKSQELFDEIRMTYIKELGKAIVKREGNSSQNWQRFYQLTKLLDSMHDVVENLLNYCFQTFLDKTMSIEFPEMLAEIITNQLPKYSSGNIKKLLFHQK
method_description: Transactivation assay (MMTV-luciferase reporter) in Cos-7 cells, mutant Val610 GR
condition_parameters: EC50 of transactivation, Val610 GR, Cos-7 cells, narrow concentration range

>  <structure>
C[C@]12CCC(=O)C=C1CC[C@@H]1[C@@H]2[C@@H](O)C[C@@]2(C)[C@H]1CC[C@]2(O)C(=O)CO

>  <EC50 (nM)>
22.9

$$$$
